Data origin, for the record: patent US20070128217A1

System: recombinant human anti-SARS-CoV antibody 03-018
Assay type: binding
Parameters: unit not given here
observed-property: Binding of antibody 03-018 to linear peptides of the N protein of SARS-CoV Urbani
# answer = number (no unit)

Item `DYKHWPQIAQFAPSA` has what recorded Binding of antibody 03-018 to linear peptides of the N protein of SARS-CoV Urbani? 0.1

###

System: antibodies in sera from SARS patients (sera 1a, 1b, 2, 6, 37, 62, London, SARS-yellow, SARS-green)
Assay type: binding, human
Entries and their Binding of serum SARS-green to looped/cyclic peptides of protein X2 of SARS-CoV Urbani
# answer = number (no unit)

Recorded Binding of serum SARS-green to looped/cyclic peptides of protein X2 of SARS-CoV Urbani, per entry:
[
  {
    "residue-string": "KVSTNLCTHSFRKKQ",
    "endpoint-result": 0.3
  },
  {
    "residue-string": "LACLCKHKKVSTNLC",
    "endpoint-result": 0.2
  },
  {
    "residue-string": "LQELLIQQWIQFMMS",
    "endpoint-result": 0.2
  },
  {
    "residue-string": "SLLKVTAFQHQNSKK",
    "endpoint-result": 0.1
  }
]

Item `LLACLCKHKKVSTNL` has what recorded Binding of serum SARS-green to looped/cyclic peptides of protein X2 of SARS-CoV Urbani? 0.3

Item `HRMCKYTQSTALQEL` has what recorded Binding of serum SARS-green to looped/cyclic peptides of protein X2 of SARS-CoV Urbani? 0.5

Item `IQFMMSRRRLLACLC` has what recorded Binding of serum SARS-green to looped/cyclic peptides of protein X2 of SARS-CoV Urbani? 0.2

###

Test system: antibodies in sera from SARS patients (sera 1a, 1b, 2, 6, 37, 62, London, SARS-yellow, SARS-green)
Type: binding, human
Entries and their Binding of serum London to looped/cyclic peptides of protein X4 of SARS-CoV Urbani
# answer = number (no unit)

Recorded Binding of serum London to looped/cyclic peptides of protein X4 of SARS-CoV Urbani, per entry:
[
  {
    "residue-string": "KIILFLTLIVFTSCE",
    "endpoint-result": 0.4
  },
  {
    "residue-string": "VLLKEPCPSGTYEGN",
    "endpoint-result": 0.3
  },
  {
    "residue-string": "LIVAALVFLILCFTI",
    "endpoint-result": 0.2
  },
  {
    "residue-string": "ADGTRHTYQLRARSV",
    "endpoint-result": 0.3
  },
  {
    "residue-string": "VFTSCELYHYQECVR",
    "endpoint-result": 0.3
  }
]

Item `GTRHTYQLRARSVSP` has what recorded Binding of serum London to looped/cyclic peptides of protein X4 of SARS-CoV Urbani? 0.3

Item `FLTLIVFTSCELYHY` has what recorded Binding of serum London to looped/cyclic peptides of protein X4 of SARS-CoV Urbani? 0.3

Item `ARSVSPKLFIRQEEV` has what recorded Binding of serum London to looped/cyclic peptides of protein X4 of SARS-CoV Urbani? 0.3

Item `LRARSVSPKLFIRQE` has what recorded Binding of serum London to looped/cyclic peptides of protein X4 of SARS-CoV Urbani? 0.4

###

System: rabbit serum obtained by immunizing a rabbit with the SARS-CoV strain Frankfurt 1
Format: binding
Set-up: unit not given here
Entries and their Rabbit serum looped peptides

Recorded Rabbit serum looped peptides, per entry:
[
  {
    "residue-string": "IMRTFRIAIWNLDVI",
    "Rabbit serum looped peptides": 0.6
  },
  {
    "residue-string": "ATSRTLSYYKLGASQ",
    "Rabbit serum looped peptides": 0.4
  },
  {
    "residue-string": "LDVIISSIVRQLFKP",
    "Rabbit serum looped peptides": 0.0
  },
  {
    "residue-string": "FHPLADNKFALTCTS",
    "Rabbit serum looped peptides": 0.2
  },
  {
    "residue-string": "FLIVAALVFLILCFT",
    "Rabbit serum looped peptides": 0.3
  },
  {
    "residue-string": "LYSPLFLIVAALVFL",
    "Rabbit serum looped peptides": 0.3
  },
  {
    "residue-string": "KLNTDHAGSNDNIAL",
    "Rabbit serum looped peptides": 0.3
  },
  {
    "residue-string": "PKEITVATSRTLSYY",
    "Rabbit serum looped peptides": 0.2
  }
]

Note: attention shifts to another entry.
Item `FRIAIWNLDVIISSI` has what recorded Rabbit serum looped peptides? 0.2
